src = the supplement of paper PMC10567573

B1: GALNT9 (parent)
chain: FTQSGPIVSRATGRCLEVEMSKDA

- Variants of: B1
- procedure details: protein stability index of a GFP-peptide fusion (GPS, HEK-293T) (PSI 1-6); higher = more stable;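 further: lentivirally expressed fusions sorted by FACS into six bins by GFP to DsRed ratio, PSI derived from sequencing read proportions per bin multiplied by bin number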
- experimental conditions: c terminus: a fixed tail appended
metric name: protein stability index
The response must contain the number and no unit.

Examples with answers:
sequence variant	protein stability index
E19Y	1.53
S21L	1.74
R10H	2.37
R10V	2.6
K22Y	2.62
S9D	2.99
T12Q	1.56
S4A	2.37

Report measured protein stability index; entry is `G13F`
2.15

Return value of protein stability index for input `D23V` , no commentary.
2.02

Could you please provide reported protein stability index for `R14P` ? Thanks!
3.1

Output measured protein stability index for this item: `M20Q`
3.23

Give the reported value of protein stability index for this record: `T2I`
2.01

Annotate the variant `S4Y` with its measured protein stability index.
2.24

Return protein stability index for the following variant: `D23N`
2.42

Give protein stability index for the following variant: `F1K`
3.17

Identify protein stability index associated with the variant `C15I`
2.7

Report measured protein stability index; entry is `M20N`
3.34

Determine from records and report protein stability index for `M20A`
3.61

Identify measured protein stability index associated with `C15S`
2.7

Identify measured protein stability index corresponding to `T12K`
2.15

Provide one value: measured protein stability index of `V8G`
1.96
